These measurements were taken from paper PMC9784018.

Target: CTLA-4 (coated for ELISA) (UniProt P16410)
Assay: ELISA; CTLA-4 (5 μg/mL) coated on 384-well plate; purified MBP–peptide–His-tag fusion in 15-point two-fold dilution from 14 μM to 0.85 nM in PBS with 0.5% BSA, 1 h; detected with anti-FLAG M2 peroxidase antibody; EC50 = midpoint concentration
measured_endpoint: EC50 (µM)
Response body: numeric value in µM, unit text excluded.

Looking for the measured EC50 of CMHPFLPIVSHHFCER [MBP–C4m-3127 peptide–His-tag fusion protein] , can you help? 0.0747
